- test.details: Acute toxicity (LD50), oral by oesophageal tube
- protocol.conditions: rat, in vivo, rats, mortality within 7 days
quantity: LD50 at 168 h

{"columns": ["smiles.repr", "quantity", "readout.value"],
 "data": [
  ["c1ccc(Cn2ccnc2-c2nnn[nH]2)cc1", "LD50 at 168 h", "> 4000 mg/kg"]
]}

Turning now to a further record.
Exam item: Returns the measured LD50 at 168 h for the input compound. Input: `Cn1ccnc1Cc1nnn[nH]1`
Marked response: > 3150 mg/kg
